meta.source: patent US20250353820A1

# System name: human CMV DNA polymerase UL54 (Human cytomegalovirus (strain AD169) (HHV-5) (Human herpesvirus 5))
# Assay method text: biochemical
# Assay setup: read-out: CMV-polymerase Biochemical IC50; 100 pM CMV polymerase, 60 minutes at room temperature
Readout label: pIC50
Field pIC50 (float): negative decimal logarithm of the concentration in molar.

Query: // pIC50 lookup, key: CC(N)COCC(C)(C)S(=O)(=O)C1(CN2CCc3c(C(=O)NCc4ccc(Cl)cc4)nn(C)c3C2=O)CC1 (single isomer, unassigned) [Example 98]
Reply: 9.00

* * *

# System name: human HSV DNA polymerase UL30 (Human herpesvirus 1 (strain 17) (HHV-1) (Human herpes simplex virus 1), UniProt P04293)
# Assay method text: biochemical
# Assay setup: 625 pM HSV polymerase, 20 minutes at room temperature; read-out: HSV-polymerase Biochemical IC50
Recorded log10 IC50 by entry
Short version: log10 scale, IC50, nM.

Field: example entries. Status: answers known.
# Compound, log10 IC50
rows = [
    ("Cn1nc(C(=O)NCc2ccc(C#N)cc2)c2c1C(=O)N(CC1(S(=O)(=O)C(C)(C)[C@H](O)CO)CC1)CC2 [Example 193]", 1.04),
    ("Cn1nc(C(=O)NCc2ccc(Cl)cc2)c2c1C(=O)N(CC1(S(=O)(=O)NCCO)CC1)CC2 [Example 143]", 2.54),
    ("CNCCOCC(C)(C)S(=O)(=O)C1(CN2CCc3c(C(=O)NCc4ccc(C#N)cc4)nn(C)c3C2=O)CC1 [Example 101]", 1.51),
    ("Cn1nc(C(=O)NCc2ccc(C#N)cc2)c2c1C(=O)N(CC1(S(=O)(=O)Nc3ccccn3)CC1)CC2 [Example 155]", 1.89),
    ("Cn1nc(C(=O)NCc2ccc(Cl)cc2)c2c1C(=O)N(CC1(S(=O)(=O)C(F)F)CC1)CC2 [Example 39]", 2.80),
]

Query: log10 IC50 lookup needed for N#Cc1ccc(CNC(=O)c2nn(CC3(CO)CC3)c3c2CCN(CC2(S(=O)(=O)C4CC4)CC2)C3=O)cc1 [Example 47] , thanks.
Reply: 1.77

Query: Now this one: Cn1nc(C(=O)NCc2ccc(C#N)c(F)c2)c2c1C(=O)N(CC1(S(C)(=O)=O)CC1)CC2 [Example 23]
Reply: 2.54

Query: Also check CC(C)(O)Cn1nc(C(=O)NCc2ccc(C#N)cc2)c2c1C(=O)N(CC1(S(=O)(=O)C3CC3)CC1)CC2 [Example 230]
Reply: 1.53

Query: Lookup CC(C)(CO)S(=O)(=O)C1(CN2CCc3c(C(=O)NCc4ccc(C#N)cc4)nn(CCOCCBr)c3C2=O)CC1 [Example 238]
Reply: 1.20

Query: Input CO[C@@H]1CCN(CC(C)(C)S(=O)(=O)C2(CN3CCc4c(C(=O)NCc5ccc(C#N)cc5)nn(C)c4C3=O)CC2)C1 [Example 62]
Reply: 2.14

Query: Try CC(C)[C@@H](NS(=O)(=O)C1(CN2CCc3c(C(=O)NCc4ccc(Cl)cc4)nn(C)c3C2=O)CC1)C(=O)O [Example 215] next.
Reply: 1.45

Query: Same read-out for CC(N)COCC(C)(C)S(=O)(=O)C1(CN2CCc3c(C(=O)NCc4ccc(C#N)cc4)nn(C)c3C2=O)CC1 (single isomer, unassigned) [Example 100] ?
Reply: 1.78

Query: Entry Cn1nc(C(=O)NCc2ccc(C#N)cc2)c2c1C(=O)N(CC1(S(=O)(=O)C(C)(C)COC(F)(F)CN)CC1)CC2 [Example 85] please
Reply: 1.69

Query: One more compound: Cn1nc(C(=O)NCc2ccc(Cl)cc2)c2c1C(=O)N(CC1(S(C)(=O)=O)CC1)CC2 [Example 22]
Reply: 2.64

* * *

# System name: human HSV DNA polymerase UL30 (Human herpesvirus 1 (strain 17) (HHV-1) (Human herpes simplex virus 1), UniProt P04293)
# Assay method text: biochemical
# Assay setup: HSV-polymerase Biochemical IC50, 625 pM HSV polymerase, 20 minutes at room temperature
Readout label: IC50
Entry format: amount then unit.

# Molecule, IC50
measured = [
    ("CC(N)COCC(C)(C)S(=O)(=O)C1(CN2CCc3c(C(=O)NCc4ccc(Cl)cc4)nn(C)c3C2=O)CC1 (single isomer, unassigned) [Example 97]", "23 nM"),
    ("CC(N)COCC(C)(C)S(=O)(=O)C1(CN2CCc3c(C(=O)NCc4ccc(Cl)cc4)nn(C)c3C2=O)CC1 (single isomer, unassigned) [Example 98]", "26 nM"),
]

Alright, here's another molecule for you.
Query: Return reported IC50; argument: CC(N)COCC(C)(C)S(=O)(=O)C1(CN2CCc3c(C(=O)NCc4ccc(C#N)cc4)nn(C)c3C2=O)CC1 (single isomer, unassigned)
Reply: 63 nM

* * *

# Tested on: VZV Ellen strain
# Assay method text: VZV qPCR assay
# Assay setup: Human alphaherpesvirus 3, MRC5, 48 h, read-out: Cellular activity against VZV (EC50)
Readout label: pEC50
Just so you know, pEC50 here is -log10 of the concentration in molar units; reply with that number alone.

Query: Give its pEC50 value. Item: Cn1nc(C(=O)NCc2ccc(C#N)cc2)c2c1C(=O)N(CC1(S(=O)(=O)C(C)(C)C(O)CN)CC1)CC2 (single isomer, unassigned)
Reply: 6.90

* * *

# System name: human HSV DNA polymerase UL30 (Human herpesvirus 1 (strain 17) (HHV-1) (Human herpes simplex virus 1))
# Assay method text: biochemical
# Assay setup: 625 pM HSV polymerase, 20 minutes at room temperature; read-out: HSV-polymerase Biochemical IC50
pIC50: −log10 of the molar value.
Class key for pIC50 values: lower: < 6; middle: ≥ 6 and < 7; upper: ≥ 7

# Molecule, Class
measured = [
    ("C[C@H](NC(=O)c1nn(C)c2c1CCN(CC1(S(=O)(=O)C3CC3)CC1)C2=O)c1ccc(C#N)cc1 [Example 16]", "middle"),
    ("Cn1nc(C(=O)NCc2ccc(C#N)cc2)c2c1C(=O)N(CC1(S(=O)(=O)C3CCOCC3)CC1)CC2 [Example 169]", "middle"),
]

Query: Hey, which category is Cn1nc(-c2nnnn2Cc2ccc(C#N)cc2)c2c1C(=O)N(CC1(S(=O)(=O)C3CC3)CC1)CC2 [Example 30] in, do you know?
Reply: lower

Query: Input CS(=O)(=O)C1(CN2CCc3c(nn4c3C(=O)N(Cc3ccc(C#N)cc3)CC4)C2=O)CC1 [Example 46]
Reply: lower

Query: Queued: CC(C)(O)Cn1nc(C(=O)NCc2ccc(C#N)cc2)c2c1C(=O)N(CC1(S(C)(=O)=O)CC1)CC2 [Example 232]
Reply: middle

Query: Then Cn1nc(C(=O)NCc2ccc(C#N)cc2)c2c1C(=O)N(CC1(S(=O)(=O)N3CCC(N)CC3)CC1)CC2 [Example 138] ?
Reply: middle

Query: Similarly, COC1CN(CC(C)(C)S(=O)(=O)C2(CN3CCc4c(C(=O)NCc5ccc(C#N)cc5)nn(C)c4C3=O)CC2)C1 [Example 66] ?
Reply: upper

Query: Continue with CC(C)(CO)S(=O)(=O)C1(CN2CCc3c(C(=O)NCc4ccc(Cl)cc4)nn(CCO)c3C2=O)CC1 [Example 221]
Reply: upper

Query: Do the same for CN(C)/C=N/S(=O)(=O)C1(CN2CCc3c(C(=O)NCc4ccc(Cl)cc4)nn(C)c3C2=O)CC1 [Example 122] please
Reply: middle

Query: Also Cn1nc(C(=O)NCc2ccc(C#N)cc2)c2c1C(=O)N(CC1(S(=O)(=O)C(C)(CN)CO)CC1)CC2 (single isomer, unassigned) [Example 185] , if possible.
Reply: upper

* * *

# System name: human HSV DNA polymerase UL30 (Human herpesvirus 1 (strain 17) (HHV-1) (Human herpes simplex virus 1))
# Assay method text: biochemical
# Assay setup: 625 pM HSV polymerase, 20 minutes at room temperature; read-out: HSV-polymerase Biochemical IC50
log10 IC50 for assorted compounds
Values are log10 of IC50 in nM.

# Compound, Result value
measured = [
    ("Cc1cc(NS(=O)(=O)C2(CN3CCc4c(C(=O)NCc5ccc(Cl)cc5)nn(C)c4C3=O)CC2)no1", 1.08),
    ("Cn1nc(C(=O)NCc2ccc(C#N)cc2)c2c1C(=O)N(CC1(S(=O)(=O)C3CCOC3)CC1)CC2 (single isomer, unassigned) [Example 170]", 2.09),
    ("Cc1cc(C#N)ccc1CNC(=O)c1nn(C)c2c1CCN(CC1(S(=O)(=O)C3CC3)CC1)C2=O", 2.54),
    ("Cn1nc(C(=O)NCc2ccc(C#N)cc2)c2c1C(=O)N(CC1(S(=O)(=O)NCCO)CC1)CC2", 2.37),
]

Query: Can you look up the measured log10 IC50 of "Cn1nc(C(=O)NCc2ccc(C#N)cc2)c2c1C(=O)N(CC1(S(=O)(=O)NCCCN)CC1)CC2" for me?
Reply: 2.45

Query: What would you report for "Cn1nc(C(=O)NCc2ccc(C#N)cc2)c2c1C(=O)N(CC1(S(=O)(=O)NC(C)(C)CO)CC1)CC2" ?
Reply: 2.21

Query: Follow-up item: "Cn1nc(C(=O)NCc2ccc(C#N)cc2)c2c1C(=O)N(CC1(S(=O)(=O)C(C)(C)CN3CCOCC3)CC1)CC2"
Reply: 1.88
